Quantity Measured: glass transition temperature (°C)

Below: 3 molecules and their reported glass transition temperature.
1) *c1ccc2c(c1)C(=O)N(c1ccc(Oc3ccc(N4C(=O)c5ccc(C(*)(C(F)(F)F)C(F)(F)F)cc5C4=O)cc3)cc1)C2=O (repeat unit) | 295.50
2) */C=C/C1CC(*)C(C#N)(CCCC)C1 (repeat unit) | 87.00
3) *C(CC(C)C)C(=O)Nc1ccc(Oc2ccc(NC(=O)NCC3(C)CC(NC(=O)Nc4ccc(Oc5ccc(NC(=O)C(CC(C)C)n6c(=O)c7cc8c(=O)n(*)c(=O)c8cc7c6=O)cc5)cc4)CC(C)(C)C3)cc2)cc1 (repeat unit) | 147.50

(1) *OC(=O)c1ccc(C(=O)OC2COC3C(*)COC23)o1 (repeat unit)
(2) *O[Si](C)(C)O[Si](C)(C)O[Si](C)(C)O[Si](C)(C)O[Si](C)(C)C#Cc1ccc(C#C[Si](*)(C)C)cc1 (repeat unit)
(3) */C=C/CC(C*)(C(=O)OC12CC3CC(CC(C3)C1)C2)C(=O)OC12CC3CC(CC(C3)C1)C2 (repeat unit)
(4) */C=C/c1cc(OCCc2ccccc2)c(*)cc1OC (repeat unit)
Prompt: Hey, quick one: sort these by glass transition temperature, low to high? Labels, requested order.
Response: 3, 2, 4, 1

(I) *Oc1ccc(S(=O)(=O)c2ccc(Oc3ccc(C4(c5ccc(*)cc5)CC5CCC4C5)cc3)cc2)cc1 (repeat unit)
(II) *CCCCCCCCCCNC(=O)c1ccc(C(=O)N*)c(Oc2ccccc2)c1 (repeat unit)
(III) *Oc1ccc(C2(c3ccc(Oc4ccc(C(=O)Oc5ccc(C6(c7ccc(OC(=O)c8ccc(*)cc8)cc7)CCC(c7ccccc7)CC6)cc5)cc4)cc3)CCC(C(C)(C)C)CC2)cc1 (repeat unit)
(IV) *c1ccc(C2(c3ccc(N4C(=O)c5ccc(Oc6ccc7c(c6)C(=O)N(*)C7=O)cc5C4=O)cc3)c3ccccc3-c3ccccc32)cc1 (repeat unit)
Prompt: Please rank these molecules by glass transition temperature in descending order. Labels, requested order.
Response: IV, I, III, II

(A) *Oc1c(Cl)cc(C(C)(C)c2cc(Cl)c(OC(*)=O)c(Cl)c2)cc1Cl (repeat unit)
(B) *Nc1cc(NC(=O)c2cccc(C(*)=O)c2)cc(-c2nnc(-c3ccccn3)o2)c1 (repeat unit)
Prompt: Hi there, can you help? I need to know whether A or B has lower measured glass transition temperature. Your choice should be expressed through its label.
Response: B

(1) *Oc1ccc(OC(=O)c2ccc(C(C)(C)c3ccc(C(*)=O)cc3)cc2)cc1 (repeat unit)
(2) *CCCOC(=O)OCCCCCCOC(=O)OCCCN1C(=O)c2ccc(C(=O)c3ccc4c(c3)C(=O)N(*)C4=O)cc2C1=O (repeat unit)
Prompt: Which is greater in glass transition temperature, the first item 1 or the second item 2 ? Your choice should be expressed through its label.
Response: 1

(1) *c1ccc2c(c1)C(=O)N(c1cccc(S(=O)(=O)c3cccc(N4C(=O)c5ccc(C(*)(C(F)(F)F)C(F)(F)F)cc5C4=O)c3)c1)C2=O (repeat unit)
(2) *Cc1cccc(CNC(=O)c2cccc(C(=O)N*)c2)c1 (repeat unit)
Prompt: Which is greater in glass transition temperature, the first item 1 or the second item 2 ? Your choice should be expressed through its label.
Response: 1
(1: 275.00 °C, 2: 172.00 °C)

(A) *c1ccc(NC(=O)c2cc(NC(=O)c3ccc(NC(=O)C(C)N4C(=O)c5ccccc5C4=O)cc3)cc(C(=O)Nc3ccc(S(*)(=O)=O)cc3)c2)cc1 (repeat unit)
(B) *CC(*)(C)C(=O)OCc1ccc(OCCOCC)c(OCCOCC)c1 (repeat unit)
Prompt: Hi there, can you help? I need to know whether A or B has lower measured glass transition temperature. Your choice should be expressed through its label.
Response: B
(B: -2.00 °C, A: 208.00 °C)

(A) *c1ccc(Cc2ccc(S(*)(=O)=O)cc2)cc1 (repeat unit)
(B) *CCCCCCCCCCCCOc1ccc(C(C)(C)c2ccc(OCOc3ccc(C(C)(C)c4ccc(O*)cc4)cc3)cc2)cc1 (repeat unit)
(C) *CC(O)CN(CC(O)CN(*)c1ccccc1)c1ccc(/N=N/c2ccc([N+](=O)[O-])cc2)cc1 (repeat unit)
Prompt: Hey, quick one: sort these by glass transition temperature, low to high? Labels, requested order.
Response: B, C, A

(1) *c1ccc(Oc2ccc(N3C(=O)C(Cl)=C(Oc4ccc(C(c5ccc(OC6=C(Cl)C(=O)N(*)C6=O)cc5)(C(F)(F)F)C(F)(F)F)cc4)C3=O)cc2)cc1 (repeat unit)
(2) *CC(*)c1ccccc1COCCCCC (repeat unit)
Prompt: Which is greater in glass transition temperature, the first item 1 or the second item 2 ? Your choice should be expressed through its label.
Response: 1

* * *

Quantity Measured: glass transition temperature (°C)

1. */N=N/c1ccc(Nc2ccc(C(=O)c3ccc(Nc4ccc(*)cc4)cc3)cc2)cc1 (repeat unit) | 216.42
2. *c1ccc(Oc2cccc(Oc3ccc(-n4c(=O)c5cc6c(=O)n(*)c(=O)c6cc5c4=O)cc3)c2C#N)cc1 (repeat unit) | 328.00
3. *c1ccc2c(c1)C(=O)N(c1cccc(C(=O)Nc3ccc(C(c4ccc(NC(=O)c5cccc(N6C(=O)c7ccc(C(*)(C(F)(F)F)C(F)(F)F)cc7C6=O)c5C)cc4)(C(F)(F)F)C(F)(F)F)cc3)c1C)C2=O (repeat unit) | 250.00
4. *OC(C)C(=O)OCC(*)=O (repeat unit) | 43.00

* * *

Quantity Measured: glass transition temperature (°C)

Below: 2 compounds and their reported glass transition temperature.
1. *c1ccc(Oc2ccc(-c3ccc(Oc4ccc(N5C(=O)c6ccc(Oc7cc(C(C)(C)C)c(Oc8ccc9c(c8)C(=O)N(*)C9=O)cc7C(C)(C)C)cc6C5=O)cc4)cc3)cc2)cc1 (repeat unit) | 262.00
2. *CCCCCCCCCCOC(=O)NCc1ccc(CNC(=O)O*)cc1 (repeat unit) | 49.00

(1) *Oc1ccc(C(=O)c2ccccc2)c(-c2cc(Oc3ccc(C(c4ccc(*)cc4)(C(F)(F)F)C(F)(F)F)cc3)ccc2C(=O)c2ccccc2)c1 (repeat unit)
(2) *C(=O)OCCCCCCCCCOC(=O)c1ccc(NC(=O)c2ccc(N3C(=O)c4ccc(*)cc4C3=O)cc2)cc1 (repeat unit)
Prompt: Hi there, can you help? I need to know whether 1 or 2 has lower measured glass transition temperature. Your choice should be expressed through its label.
Response: 2

* * *

Quantity Measured: glass transition temperature (°C)

Below: 5 compounds and their reported glass transition temperature.
1. *CCc1ccc(*)cc1 (repeat unit) | 70
2. *CCCCCCCCCCN1C(=O)c2ccc(C(c3ccc4c(c3)C(=O)N(*)C4=O)(C(F)(F)F)C(F)(F)F)cc2C1=O (repeat unit) | 123.00
3. *C(=O)N1C(=O)N(C(=O)c2ccc3c(c2)C(=O)N(c2ccc(Oc4ccc(N5C(=O)c6ccc(*)cc6C5=O)cc4)cc2)C3=O)C(CC)(CC)C1=O (repeat unit) | 160.00
4. *CCCCCCCCCCCCNC(=O)CCP(C)(=O)CCC(=O)N* (repeat unit) | 44.00
5. *CCCCOC(=O)COCC(=O)O* (repeat unit) | -23.00

(1) *c1ccc2c(c1)C(=O)N(c1ccc(C(=O)Nc3ccc(Oc4ccc(NC(=O)c5ccc(N6C(=O)c7ccc(C(*)(C(F)(F)F)C(F)(F)F)cc7C6=O)cc5)cc4)cc3)cc1)C2=O (repeat unit)
(2) *c1cc(-c2ccc(C(=C3C=C(C(C)(C)C)C(=O)C(C(C)(C)C)=C3)c3cc(C(C)(C)C)c(O)c(C(C)(C)C)c3)cc2)c(*)s1 (repeat unit)
Prompt: Hi there, can you help? I need to know whether 1 or 2 has lower measured glass transition temperature. Your choice should be expressed through its label.
Response: 2
(2: -12.60 °C, 1: 322.00 °C)

* * *

Quantity Measured: glass transition temperature (°C)

Below: 4 compounds and their reported glass transition temperature.
1) *CCOc1ccc(OC(=O)c2ccc(C(=O)Oc3ccc(O*)cc3)c(OCCCCC)c2)cc1 (repeat unit) | 95.00
2) *c1ccc(Oc2ccc(-c3ccc(Oc4ccc(N5C(=O)c6cccc(Oc7ccc(C(c8ccc(Oc9cccc%10c9C(=O)N(*)C%10=O)cc8)(C(F)(F)F)C(F)(F)F)cc7)c6C5=O)cc4)cc3)cc2)cc1 (repeat unit) | 234.00
3) *CC(*)(Cl)C(=O)OC (repeat unit) | 125.00
4) *C(=O)c1ccc2c(c1)C(=O)N(c1ccc(Oc3ccc(C(=O)c4ccc(C(=O)c5ccc(C(=O)c6ccc(Oc7ccc(N8C(=O)c9ccc(*)cc9C8=O)cc7)cc6)cc5)cc4)cc3)cc1)C2=O (repeat unit) | 233.00

(1) *Nc1ccc(CC(C)(C)NC(=O)c2ccc(C(*)=O)cc2)cc1 (repeat unit)
(2) *CC(*)(C)C(=O)OCCOc1ccc(-c2ccc(-c3ccc(C#N)cc3)cc2)cc1 (repeat unit)
(3) *CC(*)(C)C(=O)OCCCCCCCCCCOc1ccc(/N=N/c2ccc(Cl)cc2)cc1 (repeat unit)
Prompt: Hey, quick one: sort these by glass transition temperature, low to high? Labels, requested order.
Response: 3, 2, 1
(3: 54.00 °C, 2: 115.00 °C, 1: 175.00 °C)
